The reported measurements were obtained from ChEMBL document CHEMBL4616678.

Species on record: Homo sapiens
assay notes: Selectivity index, ratio of Ki for recombinant human CB1R expressed in HEK293 cell membranes to Ki for recombinant human CB2R expressed in HEK293 cell membranes
Format: cell-based
readout type: Ratio Ki

>>> numeric_result("CCCCCN1C(=O)C(C(=O)NC23CC4CC(CC(C4)C2)C3)=C(O)C2C1C=NN2C (centres undefined)")
62
>>> numeric_result("CCCn1c(=O)c(C(=O)NC23CC4CC(CC(C4)C2)C3)c(O)c2nn(CCO)cc21")
6
>>> numeric_result("CCCn1c(=O)c(C(=O)NC23CC4CC(CC(C4)C2)C3)c(O)c2nn(CCOC(C)=O)cc21")
5
>>> numeric_result("CCCCCn1c(=O)c(C(=O)NC23CC4CC(CC(C4)C2)C3)c(O)c2nn(C)cc21")
167
